Values from the RNAGym collection of RNA variant scans (doi:10.1073/pnas.2313332121)

B1: TPR 5TU (parent)
chain: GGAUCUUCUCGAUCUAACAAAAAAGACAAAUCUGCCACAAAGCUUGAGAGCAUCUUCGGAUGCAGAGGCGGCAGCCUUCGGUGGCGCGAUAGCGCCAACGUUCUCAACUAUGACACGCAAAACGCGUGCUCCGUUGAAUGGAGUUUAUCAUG

# Variants of: B1
# assay.method.text: polymerase ribozyme fitness, log enrichment relative to wild type (log ratio); higher = more active; in vitro selection for triplet polymerase activity
Variants at the floor of the assay were thinned out.
Assign Condition met whenever polymerase ribozyme fitness (log ratio) does not fall below -3; assign Condition not met whenever it does.

| mutation.list | label |
| --- | --- |
| A3U A28C C63U C85U A142C G152U | Condition not met |
| C93U A107U | Condition not met |
| A49C C54U G86C G88C A138U | Condition not met |
| G62A A121G | Condition met |
| A23G G124C A147G A150G | Condition not met |
| A16U U56A C96A | Condition not met |
| A16C G88A C116G | Condition not met |
| A41U U55C C63U G86A | Condition met |
| G11U C38A G83U U135C C149G | Condition not met |
| C32U A40U U56C C85U U90A C114U | Condition not met |
| G50C U61A G62U A142C | Condition met |
| U6G C8A G48A U56G C75U G80C G83U G92U C93A C99U G100U | Condition not met |
| A64U C96U C105G G141A A147G | Condition not met |
| G50C A52C U56C C96U A107U | Condition not met |
| G92U A137G U145C | Condition met |
| C5G C27U C38G G81A U104C A115C | Condition not met |
| C76G A91U A106G U135A | Condition not met |
| A19C A150U | Condition met |
| A17U C27G G58C C96A C116U | Condition not met |
| U56A C57U U82A G84A G92U A106C G143C | Condition not met |
| A12G A30U U146G | Condition not met |
| G80A G81A A120C | Condition met |
| A49U U56G G81A G94A U146G | Condition not met |
| G50A A60C G62A C76U C96U G100U C108G | Condition not met |
| C87A G133C U145C U146C | Condition not met |
| G58U A150C | Condition not met |
| C85G C116U U144C | Condition not met |
| A22C A24G C51G A52C U56A A121C | Condition not met |
| C105G A138G | Condition not met |
| C85U G128A | Condition not met |
| A98U G136C | Condition not met |
| A52C G88A U146G A150C | Condition not met |
| A21U C105G A113G C116U | Condition not met |
| U6C A17U U33C C51G C57G G83U C95G A98G U127G | Condition not met |
| A26U G34U G59C G62A C75G C93G U104A G152A | Condition not met |
| A23C U33A A41G U45A C87G C103G | Condition not met |
| U33C A39C G88A C118G C123A | Condition not met |
| C54A A91U G100A G141C | Condition not met |
| A23C A49G C93U U148C | Condition not met |
| C43U A138C | Condition not met |
| G11C C105U C118G | Condition met |
| A17G C35U G83A | Condition met |
| A17U G42A G81C G86U G92C G143C | Condition not met |
| U15A A20G U44A A121C G136U | Condition not met |
| A73G C95U A122U C125U U127G A138G | Condition not met |
| C54A C79U C93A A113U U127G | Condition not met |
| C85G G133U | Condition not met |
| U31G C99U C116U A137G | Condition met |
| U55A U61A A97C C103A C125A | Condition not met |
| C51A G84A U144A | Condition met |
| A24U C43A A60C C96A A119U G126A | Condition not met |
| G50C U90C U104G | Condition not met |
| G70A A97U | Condition not met |
| A73U G92U G141A U145A | Condition not met |
